# system-under-test: Calpain
# assay: Calpain enzyme assay
# experimental-conditions: Ki by Morrison equation; pH 7.5, 5 mM CaCl2
measurement-type: Ki (nM)
Answers are plain numbers, in nM.

molecule: CCC(C)C(NC(=O)C(CC(C)C)NC(=O)OCc1ccccc1)C(=O)C(=O)NC(CCCNC(N)=O)C(N)=O (stereo not shown) [PHELIX340]
Ki (nM): 17.1

Query molecule follows.
Ask | Report Ki for CCC(C)C(NC(=O)C(CC(C)C)NC(C)=O)C(=O)C(=O)NCC(=O)NC(Cc1ccc2ccccc2c1)C(N)=O (stereo not shown) [PHELIX310] please.
Reply | 5.5

---

Protein target, amino acids: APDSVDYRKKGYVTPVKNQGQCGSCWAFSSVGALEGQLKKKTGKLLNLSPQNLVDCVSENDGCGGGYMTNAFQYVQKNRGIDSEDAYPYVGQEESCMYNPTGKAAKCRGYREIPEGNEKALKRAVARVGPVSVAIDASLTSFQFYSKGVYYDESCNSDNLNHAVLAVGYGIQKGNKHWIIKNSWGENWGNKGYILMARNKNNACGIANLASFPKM
measurement-type: pKi
Answers are plain numbers, as −log10 of the molar value.

Solved entries (count: 2):
compound: CC(NC(=O)C(Cc1ccccc1)NC(=O)Cc1ccccc1)C(=O)C(=O)NC(CCCNC(=N)N)C(=O)NC(C)(C)C(N)=O (stereo not drawn)
pKi: 5.97
//
compound: CC(NC(=O)C(Cc1ccccc1)NC(=O)Cc1ccccc1)C(=O)C(=O)NC(Cc1ccccc1)C(=O)NC(C)(C)C(N)=O (stereo not drawn)
pKi: 6.13

Query compound follows.
Ask | Report pKi for CC(NC(=O)C(Cc1cccc(F)c1)NC(=O)Cc1ccccc1)C(=O)C(=O)NC(Cc1ccccc1)C(=O)NC(C)(C)C(N)=O (stereo not drawn) please.
Reply | 5.92
